biological target: human Claudin18.2 (CLDN18.2) (human, UniProt P56856 1-261); test: cell-based or functional assay
This listing pairs binders with measured IC50 of indirect ADC cytotoxicity.
Express it in nM; write the number only.

binder: chAb29 (antibody, V domains shown) VH: EVLLQQSGPELVKPGASVKIPCKASGYTLTDHSMDWVKQSHGKSLEWIGNILPNNGGNIYNQKFRGKATLTVDKSSSTAYMELRSLTSEDTAVYNCARGHYGNSFAYWGQGTLVIVS VL: DIVMTQSPSSLTVRAGEKVTIYCKSSQSLFNSGNQKNYLTWYQQKPGQPPKLLIYWASTRESGVPHRFTGSGSGTDFTLTISSMQADDLATYYCQNGYFFPYTFGGGTKLEIK
IC50 of indirect ADC cytotoxicity [nM]: 0.91

From here, focus on the item given below.
Using the record for IMAB362 (Zolbetuximab) (antibody, V domains shown) VH: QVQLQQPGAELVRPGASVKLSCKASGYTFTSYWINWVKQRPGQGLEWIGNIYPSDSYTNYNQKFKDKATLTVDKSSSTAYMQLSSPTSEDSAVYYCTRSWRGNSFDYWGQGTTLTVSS VL: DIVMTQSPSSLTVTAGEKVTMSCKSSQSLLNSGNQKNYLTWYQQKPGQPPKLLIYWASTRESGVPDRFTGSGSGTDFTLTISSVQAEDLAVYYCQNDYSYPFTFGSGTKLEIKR , report its IC50 of indirect ADC cytotoxicity.
4.75

Source of measurements: patent US20230095569A1
